Origin of the recorded values: patent US20230357323A1

Molecular target: T1, human IL-23R (hIL-23R), custom construct with C-terminal avi and his tags, biotinylated (human, UniProt Q5VWK5 24-355, limits assumed, enzymatically biotinylated via the avi-tag)
T1 construct: immobilized on streptavidin tips in BLI, labeled target in FACS; also called human IL-23 receptor
T1 sequence (looked up): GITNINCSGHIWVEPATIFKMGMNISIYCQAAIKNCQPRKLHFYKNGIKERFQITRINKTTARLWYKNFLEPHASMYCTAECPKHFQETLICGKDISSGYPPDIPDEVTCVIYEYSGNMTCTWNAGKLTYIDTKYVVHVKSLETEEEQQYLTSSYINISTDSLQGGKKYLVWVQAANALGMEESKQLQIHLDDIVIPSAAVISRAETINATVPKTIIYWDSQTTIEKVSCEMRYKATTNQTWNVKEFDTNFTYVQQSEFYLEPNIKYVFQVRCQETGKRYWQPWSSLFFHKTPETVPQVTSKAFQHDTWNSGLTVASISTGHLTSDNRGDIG
Assay: biolayer interferometry titration, biotinylated hIL-23R immobilised on streptavidin tips, 1:1 fit
pKd: −log10 of the molar value.
TEST READOUT: pKd

Reference set, count: 2
B08 (designed binder) NLWQIFYVLNTIYKRTGDPTAKKLNKALREALKKHDEKATKELAKKATKYIRS :: 10.34
B06 (designed binder) NLWVIFYLLNTIHKRTGDPTAKKLIKALDEAMKKGDEKATKELAKKALKYIRS :: 9.49

I. A08 (designed binder) MEEEKYVRELVKKYYEKKLSQPEAVEEIRKYARKKGLEAWKLVWAFMELVKRNI
II. A08dslf03 (designed binder, E. coli, purified) MEEEKYVRELCKKYYEKKLSQPEAVEEIRKYARKKGLEAWKLVWAFMECVKRNIHHHHHH
III. 23R_B (designed binder, purified from E. coli for BLI) NLWQIFYQLSTILKRTGDPTAKKLLKALAEALKKGDEKALKELAKKATKYIRSHHHHHH
**Q:** List from greatest to least pKd. Reply with the labels, ordered as the question asks.
**A:** II, I, III
(II: 9.85, I: 9.43, III: 7.30)
